System: Henosepilachna vigintioctopunctata
Test: Insecticidal activity against third-instar larvae of Henosepilachna vigintioctopunctata assessed as mortality after 2 days
Format: functional
Conditions: 48 h
The entries below are paired with their reported LC50.
property: LC50 (µg/mL)

compound="CC(C)N(C(=O)C1(C#N)SCC(N(C)C)CS1)C(C)C (stereo unspecified)" property=LC50 unit_abbreviation=µg/mL assay_result=16
compound="CN(C)C1CSC(C#N)(C(=O)NC2CC2)SC1 (stereo unspecified)" property=LC50 unit_abbreviation=µg/mL assay_result=8
compound="CN1CCN(C(=O)C2(C#N)SCC(N(C)C)CS2)CC1 (stereo unspecified)" property=LC50 unit_abbreviation=µg/mL assay_result=20
compound="CN(C)C(=O)C1(C#N)SCC(N(C)C)CS1 (stereo unspecified)" property=LC50 unit_abbreviation=µg/mL assay_result=11
compound="CCN(CC)C(=O)C1(C#N)SCC(N(C)C)CS1 (stereo unspecified)" property=LC50 unit_abbreviation=µg/mL assay_result=15
compound="Cc1cccc(C2(C#N)SCC(N(C)C)CS2)c1 (stereo unspecified)" property=LC50 unit_abbreviation=µg/mL assay_result=120
compound="CN(C)C1CSC(C#N)(c2cc(Cl)cc(Cl)c2)SC1 (stereo unspecified)" property=LC50 unit_abbreviation=µg/mL assay_result=133
compound="CN(C)C1CSC(C#N)(c2cccc(Cl)c2)SC1 (stereo unspecified)" property=LC50 unit_abbreviation=µg/mL assay_result=10
compound="CN(C)C1CSC(C#N)(c2ccccc2F)SC1 (stereo unspecified)" property=LC50 unit_abbreviation=µg/mL assay_result=15
compound="Cc1ccc(C)c(C2(C#N)SCC(N(C)C)CS2)c1 (stereo unspecified)" property=LC50 unit_abbreviation=µg/mL assay_result=25
compound="CN(C)C1CSC(C#N)(c2cccc(F)c2)SC1 (stereo unspecified)" property=LC50 unit_abbreviation=µg/mL assay_result=18
compound="CN(C)C1CSC(C#N)(c2ccc(F)cc2)SC1 (stereo unspecified)" property=LC50 unit_abbreviation=µg/mL assay_result=130
compound="CN(C)C1CSC(C#N)(c2ccccc2Br)SC1 (stereo unspecified)" property=LC50 unit_abbreviation=µg/mL assay_result=10
compound="CCCCCNC(=O)C1(C#N)SCC(N(C)C)CS1 (stereo unspecified)" property=LC50 unit_abbreviation=µg/mL assay_result=10
compound="CN(C)C1CSC(C#N)(c2ccc(N)cc2)SC1 (stereo unspecified)" property=LC50 unit_abbreviation=µg/mL assay_result=25
compound="CNC(=O)C1(C#N)SCC(N(C)C)CS1 (stereo unspecified)" property=LC50 unit_abbreviation=µg/mL assay_result=25
compound="CCNC(=O)C1(C#N)SCC(N(C)C)CS1 (stereo unspecified)" property=LC50 unit_abbreviation=µg/mL assay_result=6
compound="CN(C)C1CSC(C#N)(c2cc(F)ccc2F)SC1 (stereo unspecified)" property=LC50 unit_abbreviation=µg/mL assay_result=30
compound="CCC(C)NC(=O)C1(C#N)SCC(N(C)C)CS1 (stereo unspecified)" property=LC50 unit_abbreviation=µg/mL assay_result=33
compound="CN(C)C1CSC(C#N)(c2ccccc2)SC1 (stereo unspecified)" property=LC50 unit_abbreviation=µg/mL assay_result=200
compound="CCCCCCCCCCNC(=O)C1(C#N)SCC(N(C)C)CS1 (stereo unspecified)" property=LC50 unit_abbreviation=µg/mL assay_result=20

* * *

Test system: Tetranychus urticae
Assay: Insecticidal activity against Tetranychus urticae (two-spotted spider mite) in kidney bean plant leaf assessed as mortality at 500 ppm after 2 days
Assay type: functional
Conditions: 48 h
property: mortality at 500 ppm (%)

compound="CN(C)C1CSC(C#N)(c2ccccc2[N+](=O)[O-])SC1 (stereo unspecified)" property="mortality at 500 ppm" assay_result=70
compound="CCCCCCCCCCNC(=O)C1(C#N)SCC(N(C)C)CS1 (stereo unspecified)" property="mortality at 500 ppm" assay_result=90
compound="CN(C)C1CSC(C#N)(c2c(Cl)cccc2Cl)SC1 (stereo unspecified)" property="mortality at 500 ppm" assay_result=80
compound="CN(C)C1CSC(C#N)(c2ccc(F)cc2)SC1 (stereo unspecified)" property="mortality at 500 ppm" assay_result=100
compound="CN(C)C1CSC(C#N)(c2ccc(Cl)c(Cl)c2)SC1 (stereo unspecified)" property="mortality at 500 ppm" assay_result=50
compound="CN(C)C1CSC(C#N)(c2cccc(Br)c2)SC1 (stereo unspecified)" property="mortality at 500 ppm" assay_result=100
compound="CN(C)C1CSC(C#N)(c2ccc([N+](=O)[O-])cc2)SC1 (stereo unspecified)" property="mortality at 500 ppm" assay_result=60
compound="CCCCCCCCNC(=O)C1(C#N)SCC(N(C)C)CS1 (stereo unspecified)" property="mortality at 500 ppm" assay_result=100
compound="CCCCNC(=O)C1(C#N)SCC(N(C)C)CS1 (stereo unspecified)" property="mortality at 500 ppm" assay_result=100
compound="CN(C)C1CSC(C#N)(c2cccc(Cl)c2)SC1 (stereo unspecified)" property="mortality at 500 ppm" assay_result=80
compound="CN(C)C1CSC(C#N)(c2ccccc2Br)SC1 (stereo unspecified)" property="mortality at 500 ppm" assay_result=100
